Target: hTrkB (Homo sapiens, UniProt Q16620)
Sequence (Q16620 32-822): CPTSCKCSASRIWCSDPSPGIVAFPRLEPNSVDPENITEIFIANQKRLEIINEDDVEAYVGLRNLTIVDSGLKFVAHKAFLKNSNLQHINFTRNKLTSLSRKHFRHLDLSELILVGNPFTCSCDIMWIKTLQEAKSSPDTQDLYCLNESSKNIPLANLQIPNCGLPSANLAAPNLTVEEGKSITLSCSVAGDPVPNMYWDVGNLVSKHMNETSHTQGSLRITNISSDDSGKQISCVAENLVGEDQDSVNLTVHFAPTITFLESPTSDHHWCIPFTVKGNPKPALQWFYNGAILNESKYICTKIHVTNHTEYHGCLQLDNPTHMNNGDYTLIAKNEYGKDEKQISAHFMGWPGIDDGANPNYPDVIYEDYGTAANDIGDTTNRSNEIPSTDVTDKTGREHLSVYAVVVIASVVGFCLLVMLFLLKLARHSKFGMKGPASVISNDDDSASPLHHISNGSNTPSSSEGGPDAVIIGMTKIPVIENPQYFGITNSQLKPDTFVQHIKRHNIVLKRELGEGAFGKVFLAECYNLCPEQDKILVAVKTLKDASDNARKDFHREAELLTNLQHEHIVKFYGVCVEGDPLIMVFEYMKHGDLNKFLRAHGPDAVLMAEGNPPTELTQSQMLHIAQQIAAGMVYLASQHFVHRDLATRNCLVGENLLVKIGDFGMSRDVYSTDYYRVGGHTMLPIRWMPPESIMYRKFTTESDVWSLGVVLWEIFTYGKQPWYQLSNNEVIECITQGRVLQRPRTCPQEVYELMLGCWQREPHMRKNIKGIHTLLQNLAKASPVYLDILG
Assay: PathHunter cell-based assay, inhibition of SH2 domain protein recruitment, hTrkB-p75 U2OS cells
Parameters: host or cells: U2OS (human bone osteosarcoma epithelial cells), PathHunter hTrkB-p75
Details: hU2OS hTrkB-p75 cells, hBDNF 20 ng/ml; N = 25; read-out: Relative IC50 hTrkB, PathHunter cell-based assay
Reported Metric: IC50 (µM)
Respond numerically; units are µM and should not be typed.

Notebook: Cn1ccc(-c2cc(C(=O)Nc3cncc(C(N)=O)c3-c3ccccn3)c(F)cc2C(F)(F)F)n1 , IC50 read as 6.7

----------
Molecular target: hTrkC (Homo sapiens, UniProt Q16288)
Sequence (Q16288 32-839): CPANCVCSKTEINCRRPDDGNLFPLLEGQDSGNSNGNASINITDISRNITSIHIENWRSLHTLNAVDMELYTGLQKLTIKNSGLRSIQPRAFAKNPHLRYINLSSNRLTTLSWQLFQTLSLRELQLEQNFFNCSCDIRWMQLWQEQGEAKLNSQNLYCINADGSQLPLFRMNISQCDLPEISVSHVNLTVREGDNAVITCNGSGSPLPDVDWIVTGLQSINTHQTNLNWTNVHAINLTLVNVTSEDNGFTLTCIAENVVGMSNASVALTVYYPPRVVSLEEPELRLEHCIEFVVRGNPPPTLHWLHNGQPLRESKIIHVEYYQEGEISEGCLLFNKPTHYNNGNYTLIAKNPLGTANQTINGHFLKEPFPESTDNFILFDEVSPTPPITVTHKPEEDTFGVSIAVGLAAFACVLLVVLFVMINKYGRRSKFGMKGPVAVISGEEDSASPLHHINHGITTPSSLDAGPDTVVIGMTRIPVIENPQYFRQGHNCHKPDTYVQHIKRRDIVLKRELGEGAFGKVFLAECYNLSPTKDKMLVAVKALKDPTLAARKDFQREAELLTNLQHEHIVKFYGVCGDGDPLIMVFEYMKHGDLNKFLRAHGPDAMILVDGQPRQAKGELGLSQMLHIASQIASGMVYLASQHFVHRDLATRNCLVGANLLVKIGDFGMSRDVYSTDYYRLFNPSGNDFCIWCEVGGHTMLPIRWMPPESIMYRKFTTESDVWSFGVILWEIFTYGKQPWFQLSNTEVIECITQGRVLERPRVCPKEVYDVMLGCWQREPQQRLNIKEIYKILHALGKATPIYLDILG
Assay: PathHunter cell-based assay, inhibition of SH2 domain protein recruitment, hTrkC-p75 U2OS cells
Set-up: host or cells: U2OS (human bone osteosarcoma epithelial cells), PathHunter hTrkC-p75
Conditions: Table 2 comparative data; Example 1 values are the PathHunter values of Table 1; read-out: hTrkC IC50
// reported pIC50 for each item listed
// returns pIC50 (minus log10 of molar concentration), number only

Input Cn1ccc(-c2cc(C(=O)Nc3cc(C(N)=O)cnc3-c3ccccc3)ccc2C(F)(F)F)n1 [Example 89 of US Patent No. 9815846] . Output pIC50: 6.34

Recorded pIC50 (compound Cn1ccc(-c2cc(C(=O)Nc3cc4c(nc3-c3ccccn3)CCNC4=O)c(F)cc2C(F)(F)F)n1 [Example 141 of US Patent No. 9815846] ): 4.42

----------
Target: hTrkA (Homo sapiens)
Sequence (P04629 33-796): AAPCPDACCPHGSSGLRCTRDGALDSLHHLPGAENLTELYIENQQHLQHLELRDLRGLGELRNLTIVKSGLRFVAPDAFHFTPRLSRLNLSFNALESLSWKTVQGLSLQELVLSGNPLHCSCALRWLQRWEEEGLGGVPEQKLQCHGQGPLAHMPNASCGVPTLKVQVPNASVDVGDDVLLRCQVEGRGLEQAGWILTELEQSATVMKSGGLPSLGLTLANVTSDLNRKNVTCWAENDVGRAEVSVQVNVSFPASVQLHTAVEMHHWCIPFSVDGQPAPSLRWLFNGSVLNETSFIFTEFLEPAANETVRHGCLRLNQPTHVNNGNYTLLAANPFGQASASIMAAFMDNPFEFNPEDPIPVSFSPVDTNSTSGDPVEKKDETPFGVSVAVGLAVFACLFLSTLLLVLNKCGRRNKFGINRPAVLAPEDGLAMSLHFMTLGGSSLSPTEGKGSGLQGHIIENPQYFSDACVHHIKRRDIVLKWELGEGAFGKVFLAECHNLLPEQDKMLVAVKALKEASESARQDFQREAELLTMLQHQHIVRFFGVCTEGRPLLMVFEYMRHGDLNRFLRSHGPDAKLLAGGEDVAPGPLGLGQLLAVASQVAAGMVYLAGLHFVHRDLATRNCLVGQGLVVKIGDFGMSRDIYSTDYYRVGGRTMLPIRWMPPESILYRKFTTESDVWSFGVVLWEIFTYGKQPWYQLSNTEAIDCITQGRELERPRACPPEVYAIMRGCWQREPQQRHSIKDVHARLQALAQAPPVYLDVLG
Experiment: PathHunter cell-based assay, inhibition of SH2 domain protein recruitment, hTrkA-p75 U2OS cells
Design: host or cells: U2OS (human bone osteosarcoma epithelial cells), PathHunter hTrkA-p75
Details: Table 2 comparative data; Example 1 values are the PathHunter values of Table 1; read-out: hTrkA IC50
Reported Metric: IC50 (nM)
Please reply with the bare figure in nM and do not write the unit itself.

{"Chemical String": "Cn1ccc(-c2cc(C(=O)Nc3cc(C(N)=O)cnc3-c3ccccc3)ccc2C(F)(F)F)n1", "Value Reported": 1.55}

As a next step, examine the molecule that follows.
So for Cn1ccc(-c2cc(C(=O)Nc3cc4c(nc3-c3ccccn3)CCNC4=O)c(F)cc2C(F)(F)F)n1 , the logged IC50 turned out to be 11.1
